Source listed as patent US6358491B1.

# System: SSTRs, NCI-H69 membranes
# Assay method text: [125I]SST-14 binding to NCI-H69 cell membranes (SSTR affinity)
# Parameters: species or system human
# Condition set: inhibition of [125I]SST-14 binding; two-site fit; read-out: IC50 Values for Uncomplexed Compounds, NCI-H69 (first value)
*1 amine or outer side, *2 acyl side, *3 side chain or, on linkers, in order; H or OH if unused. Where a SMILES comes first, the peptide text is derived from it. Bridges are numbered along the chain shown (N, C = ends). Roman numbers before positions name the chains, in order. [ ]: non-standard residue; d: D form. ξ: configuration not given here. Phe(4-NH2) = Nc1ccc(C[C@H](N)C(=O)O)cc1; NMehCys = CN[C@@H](CCS)C(=O)O; Thr(3ξ) = CC(O)[C@H](N)C(=O)O; Dap = NC[C@H](N)C(=O)O; X1 = O=C(C[*:1])[*:2]
What IC50 was measured for each of the following?
Numbers only, in nM.

Compound: CC(O)[C@H](NC(=O)[C@H](CS)NC(=O)[C@H](Cc1ccc(N)cc1)NC(=O)[C@@H](N)CNC(=O)CSCC[C@H]1C(=O)N[C@@H](Cc2ccc(O)cc2)C(=O)N[C@H](Cc2c[nH]c3ccccc23)C(=O)N[C@@H](CCCCN)C(=O)N[C@@H](C(C)O)C(=O)N[C@@H](Cc2ccccc2)C(=O)N1C)C(=O)N[C@@H](CO)C(=O)O (some centres unmarked) (I: cyclo(F[NMehCys]Y[dW]K[Thr(3ξ)]) / II: H-[Dap][Phe(4-NH2)]C[Thr(3ξ)]S-OH; linker I:2-II:1 via X1)
Unit annotation: nM
IC50: 0.201

We next turn to a different compound, shown below.
What measured IC50 goes with `C[C@@H](O)[C@H](NC(=O)[C@H](CS)NC(=O)[C@H](CCN)NC(=O)[C@@H](N)CNC(=O)CSCC[C@H]1C(=O)N[C@@H](Cc2ccc(O)cc2)C(=O)N[C@H](Cc2c[nH]c3ccccc23)C(=O)N[C@@H](CCCCN)C(=O)N[C@@H]([C@@H](C)O)C(=O)N[C@@H](Cc2ccccc2)C(=O)N1C)C(=O)O` ? 1.25
